Provide the reported Primary QIM CellNb of each item.
- Tested on: Raw264.7 cells
- EXPERIMENT_SUMMARY: Cell number (CellNb) from image analysis of the phenotypic cell-based assay
- ASSAY_CONDITIONS: primary screen, 20 μM
Please respond with just the number, no unit label.

Give Primary QIM CellNb only, for O=C(N/N=C/c1cc(Br)c(Br)o1)c1ccncc1 , using Raw264.7 cells data.
345.8

Give Primary QIM CellNb only, for O=C(NN1C(=O)c2ccc(Br)cc2C1=O)c1ccncc1 , using Raw264.7 cells data.
305.8

Give Primary QIM CellNb only, for CC(C)c1ccc(CNC(=O)c2cc([N+](=O)[O-])cc([N+](=O)[O-])c2)cc1 , using Raw264.7 cells data.
332.0

Give Primary QIM CellNb only, for CN1CCN(c2nc(Nc3ccc(OC(F)(F)F)cc3)nc(OCC(F)(F)F)n2)CC1 , using Raw264.7 cells data.
396.3

Give Primary QIM CellNb only, for O=C(N/N=C/c1cc(Br)cc([N+](=O)[O-])c1O)c1ccncc1 , using Raw264.7 cells data.
363.3

Give Primary QIM CellNb only, for O=C(N/N=C/c1ccccc1[N+](=O)[O-])c1ccncc1 , using Raw264.7 cells data.
245.5

Give Primary QIM CellNb only, for O=C(N/N=C/c1cccc(Br)c1)C1C2CC/C=C\CCC21 (stereo not shown) , using Raw264.7 cells data.
322.8

Ref: patent US8785452B2
